Tested on: M14 melanoma
TEST_SUMMARY: NCI tumour cell line growth inhibition, 48 h; in the data active means GI50 below about 0.43 µM; inactive means the rest
Outcome codes: active, inactive

- Cc1ccc(NCCN2CCCCC2)c2c(=O)c3ccccc3sc12: inactive
- Cc1ccc(S(=O)(=O)NC2=NCCN2C(=S)SN2CCn3c2nsc3=S)cc1: inactive
- O=C1/C(=C/c2ccc(O)c(O)c2)COc2ccc(-c3ccccc3)cc21: inactive
- Clc1ccc(N2CCN(CCCN3CCN(c4cccc(Cl)c4)CC3)CC2)cc1: inactive
- COc1cc(C2C3=C(COC3=O)Oc3cc4c(cc32)OCO4)cc(OC)c1OC (stereo unspecified): active
- NCCCCCCn1c2c(c3ccccc3c1=O)C(=O)c1ccccc1-2: inactive
- CCc1c2c(nc3ccc(OC(=O)NCc4ccc(B5OC(C)(C)C(C)(C)O5)cc4)cc13)-c1cc3c(c(=O)n1C2)COC(=O)[C@]3(O)CC: active
- N#Cc1c(N)nc(NCc2ccccc2)c(C#N)c1-c1ccc(Cl)cc1: inactive
- O=C(COc1cccc(/C=C2/Oc3ccccc3C2=O)c1)Nc1nccs1: inactive
- [Co+2].[O-]c1ccccc1C=NCc1ccccc1.[O-]c1ccccc1C=NCc1ccccc1: inactive
- COc1ccc2c(c1)CCC1C2CCC2(C)C3=CC(O)CCC3CC12 (stereo unspecified): inactive
- C[C@H](O)CNc1cc(-c2[nH]c3cccnc3c2-c2ccc(F)cc2)ccn1: inactive
- O=C1c2ccccc2C(=O)c2c1ccc(C(Br)Br)c2Cl: inactive
- CCN(CC)CCOc1nc2c3ccc(Cl)cc3nn2c2ccccc12: inactive
- Oc1ccccc1N=Cc1c(O)ccc2ccccc12: inactive
- Cc1cc(C)c(C#N)c(SCC(=O)c2sc3c(C#N)c(C)cc(C)[n+]3c2[O-])n1: active

###

System: SF-268 CNS
TEST_SUMMARY: NCI tumour cell line growth inhibition, 48 h
READOUT_NAME: TGI

• NC1CCC[C@H]1O (stereo partly drawn) = > 100 µM
• N/C(=N/N=C/c1cc(Br)cc(Br)c1O)NO = 8.75 µM
• CC1CN=C(N(C(=O)Nc2ccccc2)c2ccccc2)S1 (stereo not drawn) = > 100 µM
• CCCOP1(=O)C=CC(Cl)=C(C)C1 (stereo not drawn) = > 100 µM
• COC(=O)C(CCC1C=CN(S(=O)(=O)c2ccc(C)cc2)C1)N=Cc1ccccc1 (stereo not drawn) = > 100 µM
• CC(=O)N1N=C(c2cc(C)ccc2O)CC1c1cccc(Cl)c1 (stereo not drawn) = 50.5 µM
• C=C(CN(C)C)C1(c2ccccc2)CC2(CCCC2)C(=O)O1 (stereo not drawn) = > 100 µM
• NC(=O)c1c2c(n3ccccc13)C(=O)c1ccccc1C2=O = > 100 µM
• CC1=NN(c2cccc(Cl)c2)C2(SCC(=O)N2c2nc3ccccc3s2)/C1=C\c1ccccc1 (stereo not drawn) = 54.4 µM
• CCOC(=O)c1nc2cc(C(F)(F)F)ccc2nc1Nc1ccc(OC)c(OC)c1 = > 100 µM
• Cn1c2c(c3ccccc31)C1C(=O)N(c3ccccc3)C(=O)C1CC2 (stereo not drawn) = > 303 µM
• COP(=O)(OC)C(C)(C)NC(=O)NC(F)(F)F = > 100 µM
• CCCCCCCCCCCC1=NCCN1 = > 100 µM
• C/C=C(\C)C(=O)O[C@H]1C=CC(=O)O[C@H]1CC[C@H](O)[C@H](C)O = 12.3 µM
• Cc1ccc(NCCN2CCCCC2)c2c(=O)c3ccccc3sc12 = 18.7 µM
• CC#CC(OCC)(OCC)OCC = > 100 µM
• Oc1c(C(O)c2ccccn2)ccc2ccccc12 (stereo not drawn) = > 100 µM
• N#Cc1cccc(N2C(=O)c3ccc(C(=O)c4ccc5c(c4)C(=O)N(c4cccc(C#N)c4)C5=O)cc3C2=O)c1 = > 100 µM
• Cc1ccc(NC(=O)C(=O)C(C2C(C)CC(=O)C2CC(=O)O)[N+](=O)[O-])cc1 (stereo not drawn) = > 100 µM
• O=c1c(O)c(-c2ccccc2)n(O)c2ccc(Cl)cc12 = > 100 µM
• CNc1cc(OCc2ccccc2)c(OC)cc1C(=O)N1CCC[C@H]1CO = > 100 µM
• O=C(CCc1n[nH]c(=S)o1)Nc1cc(Cl)c(Cl)cc1Cl = > 100 µM
• CN(C)CCc1ccc(Cl)cc1Cl = > 100 µM
• O=C(/C=C(\N=P(c1ccccc1)(c1ccccc1)c1ccccc1)C(F)(F)C(F)(F)C(F)(F)C(F)(F)C(F)(F)C(F)(F)C(F)(F)F)c1ccccc1 = > 100 µM
• NCCCCCCn1c2c(c3ccccc3c1=O)C(=O)c1ccccc1-2 = 16.2 µM
• CN1CCN(c2ccc(N3Cc4ccccc4OC4=C3C(=O)c3c(O)ccc(O)c3C4=O)cn2)CC1 = 2.43 µM
• Cn1c2c(c3ccc(-c4ccn[nH]4)cc3c1=O)C(=O)c1ccccc1-2 = > 100 µM
• CCOC(=O)c1ccc2[nH]c(O)c(C(=Nc3ccc(N(C)C(=O)CN4CCN(C)CC4)cc3)c3ccccc3)c2c1 = 2.03 µM
• CC(=O)CC(=O)Nc1c(C)[c]([Hg][O]C(C)=O)c(C)[c]([Hg][O]C(C)=O)[c]1[Hg][O]C(C)=O = 35.4 µM
• COc1ccc2cc(C(=O)Nc3ccc(O)c(C(=O)O)c3)ccc2c1OC = > 100 µM
• CCOCc1cc(=O)c2c(O)cc3c(c2o1)CCC(C)(C)O3 = > 100 µM
• CCOC(=O)C(Cc1ccc([N+](=O)[O-])cc1)NC(=O)CC1c2ccccc2-c2ccccc21 (stereo not drawn) = > 100 µM
• Cn1c(=O)c2c3ccccc3c(C(=O)c3ccccc3)n2c2ccccc21 = > 100 µM
• O=C1Cc2c([nH]c3ccc([N+](=O)[O-])cc23)-c2ccccc2N1 = > 94.6 µM
• COC(=O)[C@@]12CCCC(=O)[C@@H]1[C@H]1CCC[C@H]12 = > 100 µM
• CC(C)(C)c1ccc2c(c1)C(O)(c1ccccc1)c1cc(C(C)(C)C)ccc1C2(O)C(F)(F)F (stereo not drawn) = 4.48 µM
• CC1C2C=CC1C(c1c3ccc(=O)c(O)c-3oc3c(O)c(O)ccc13)C2C(=O)O (stereo not drawn) = > 100 µM
• CCCCN(C(=O)c1ccccc1)C1CCC(=O)c2[nH]c3ccccc3c21 (stereo not drawn) = > 100 µM
• Brc1ccc2[nH]cc([C@H]3CN[C@@H](c4c[nH]c5ccc(Br)cc45)CN3)c2c1 = 9.05 µM
• Cc1occc(=O)c1O = > 100 µM
• COP1(=O)OCc2cnccc2O1 (stereo not drawn) = > 100 µM
• C=C(CN(C)C)C(=O)c1ccc(OC2OC(COC(C)=O)C(OC(C)=O)C(OC(C)=O)C2OC(C)=O)cc1 (stereo not drawn) = 62 µM
• O=c1c2c3c(sc2nc(CN2CCNCC2)n1-c1ccccc1)CCCC3 = > 100 µM

Reference for the values: PubChem BioAssay (NCI)
